- methodSummary: qHTS for Inhibitors of human tyrosyl-DNA phosphodiesterase 1 (TDP1): qHTS in cells in absence of CPT; also: nearly all actives have a fitted effect of over 55% in size
- conditionInfo: DT40 Tdp1-/- hTDP1 cells, no CPT, ATP luminescence, 48 h
- Method: Human tyrosyl-DNA phosphodiesterase 1 (TDP1) is a novel repair gene, and we propose to use it as a new target for anticancer drug development. […] For the primary screen, Tdp1-/-;hTDP1 cells will be exposed to small molecules in the presence or absence of CPT, and their growth kinetics will be evaluated after 48 hours by measuring ATP activity. […] The hit compounds will then be evaluated in the presence or absence of CPT using Tdp1-/- cells. […]
The campaign covered roughly 420,000 compounds. About 64,000 (15%) were called active. Not shown: some 27% with an inconclusive outcome. Calls follow the shape of the dose curve; as a rule, active = well fitted inhibition curve with a large enough effect; inconclusive = small, poorly fitted or top-dose-only effect; inactive = flat fitted curve, though single readings scatter. These entries were drawn from the full list.
Please reply with one of these outcomes: class 1 for active, class 0 for inactive

[[record]]
molecule = "Nc1ccccc1SCc1cc([N+](=O)[O-])cc2c1OCOC2"
category = "class 0"

[[record]]
molecule = "COc1ccc(-c2nn(-c3ccccc3)cc2/C=N/Nc2ccccn2)cc1OC"
category = "class 1"

[[record]]
molecule = "Cc1c(Cc2ccccc2)c(=O)oc2cc(OCC(N)=O)ccc12"
category = "class 0"


Consider the additional molecule presented here.
Can you look up the reported call for `CC(=O)N/C(=C/c1ccc(OC(F)F)cc1)C(=O)O` for me? class 0

###

- methodSummary: qHTS for Inhibitors of human tyrosyl-DNA phosphodiesterase 1 (TDP1): qHTS in cells in absence of CPT; also: nearly all actives have a fitted effect of over 55% in size
- conditionInfo: DT40 Tdp1-/- hTDP1 cells, no CPT, ATP luminescence, 48 h
The campaign covered roughly 420,000 compounds. About 64,000 (15%) were called active. Another 27% or so got no clear call; they are omitted. Calls come from the whole dose curve; as a rule, active = well fitted inhibition curve with a large enough effect; inconclusive = small, poorly fitted or top-dose-only effect; inactive = flat fitted curve, though single readings scatter. These entries were drawn from the full list.
Please reply with one of these outcomes: active, inactive

Example results:
[[record]]
compound = "O=C(Nc1ccccc1)/C(=C/c1ccc([N+](=O)[O-])cc1)NC(=O)c1ccccc1"
category = "inactive"

[[record]]
compound = "Cc1ccc(NC(=O)CC(=O)Nc2ccc(C)cc2)cc1"
category = "inactive"

[[record]]
compound = "CC(=O)Nc1cc(C(=O)NCc2ccc(F)cc2)ccc1Sc1ccc(F)cc1"
category = "inactive"

[[record]]
compound = "O=C(COC(=O)c1ccccc1O)NCc1ccco1"
category = "inactive"

[[record]]
compound = "CCCCC(CC)CNC(=O)C1CCN(S(=O)(=O)c2cccc3nsnc23)CC1 (centres undefined)"
category = "inactive"

[[record]]
compound = "Cc1ccc(Oc2nc(-c3ccccn3)nc3ccccc23)cc1"
category = "active"

[[record]]
compound = "COC(C)(C)[C@]12CC(O)(C(C)C)ON1[C@H]1CCCCC1N2O (some centres undefined)"
category = "inactive"

[[record]]
compound = "Cc1cccc(NC(=O)CSc2nc3c(c(=O)[nH]2)CCCC3)c1C"
category = "inactive"


Can you look up the reported call for COc1cc(C2C(C(=O)c3ccc(C)o3)=C(O)C(=O)N2Cc2cccnc2)ccc1O (centres undefined) for me? inactive

Can you look up the reported call for O=C(NC1CCCCC1)C1CCC(CNS(=O)(=O)c2ccccc2)CC1 (centres undefined) for me? inactive

Can you look up the reported call for `C=CCn1c(Cn2nnc3ccccc32)nnc1SCC(=O)N/N=C/c1cc(Br)cc(OC)c1O` for me? inactive

Can you look up the reported call for `COc1ccc(CNS(=O)(=O)c2cc(-c3cc(C)no3)ccc2C(C)C)cc1` for me? active

Can you look up the reported call for `C[N+](C)(C)CCNC(=O)c1c[nH]c2ccccc12` for me? inactive

Can you look up the reported call for `COc1cccc(CNS(=O)(=O)c2cc3c(cc2C)n(C)c(=O)c(=O)n3C)c1` for me? inactive

Can you look up the reported call for `O=C(c1ccc2c(c1)OCCO2)C1CCN(S(=O)(=O)c2cccc(F)c2)CC1` for me? inactive

Can you look up the reported call for `Cc1cc(C(=O)OCC(=O)NCc2ccco2)c(C)n1-c1ccccc1` for me? active
